// data source = paper PMC9234961

Test: Microsomal clearance assay (MLM)
Type: in vitro ADME
Details: female, CD1, pH 7.4; mouse liver microsomes, 1 μM compound
value_type: microsomal CLint at 1 μM (µL/min/mg)
Only the number, expressed in µL/min/mg, is required.

What microsomal CLint at 1 μM value was documented for this molecule, C[C@H]1C[C@@H](O)CN(c2ncc(Cl)c(Nc3ccc4c(c3)n(CCC(C)(C)O)c(=O)n4C)n2)C1 (relative stereo) [compound 5] ?
122

====

Biological target: LCK (Homo sapiens, UniProt P06239)
Sequence (P06239 whole entry, species assumed): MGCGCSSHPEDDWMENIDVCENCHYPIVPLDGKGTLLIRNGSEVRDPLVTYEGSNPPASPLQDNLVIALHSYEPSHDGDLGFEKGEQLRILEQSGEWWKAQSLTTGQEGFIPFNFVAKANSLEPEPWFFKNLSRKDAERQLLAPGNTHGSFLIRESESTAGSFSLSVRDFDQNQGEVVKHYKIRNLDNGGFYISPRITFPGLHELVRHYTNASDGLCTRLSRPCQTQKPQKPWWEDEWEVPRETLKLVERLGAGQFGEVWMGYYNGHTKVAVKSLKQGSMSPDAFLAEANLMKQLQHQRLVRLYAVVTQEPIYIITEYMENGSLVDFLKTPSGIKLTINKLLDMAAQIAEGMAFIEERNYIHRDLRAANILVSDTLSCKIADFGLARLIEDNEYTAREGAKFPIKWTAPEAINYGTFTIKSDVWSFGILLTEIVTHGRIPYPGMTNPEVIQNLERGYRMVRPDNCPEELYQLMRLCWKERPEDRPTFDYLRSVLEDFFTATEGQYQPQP
value_type: IC50

Value wanted: IC50 (LCK (Homo sapiens, UniProt P06239)) of entry C[C@H]1C[C@@H](O)CN(c2ncc(Cl)c(Nc3ccc4c(c3)c3c(c(=O)n4C)OCC(F)(F)[C@H](C4CC4)N3)n2)C1 [12a CCT373566]
> 10 µM
